system: MDA-MB-231 breast; test: NCI-60 one-dose screen, 48 h; conditions: 10 µM unless noted
Compounds without any hit were thinned out: in the full panel of roughly 83,000, 20% have a hit. The source made the active and inactive calls. Rule for the calls: active = growth percent below 10; inactive = the rest.
Classes to choose from: TRUE for active, FALSE for inactive

Hi, do you know how O=C1C(Cl)C(c2ccccc2Cl)N1n1cnnc1 (stereo unspecified) came out in this test?
FALSE

Would you mind doing "CN(C)c1ccc(-c2cc(-c3ccc(Nc4nc(Nc5ccccc5)nc(Nc5ccc(Cl)cc5)n4)cc3)nc(N)n2)cc1" as well?
FALSE

Would you mind doing "C/C(=N\NC(=O)Cn1c(-c2ccc(S(C)(=O)=O)cc2)nc2cc(Cl)ccc21)c1ccc(Cl)cc1" as well?
FALSE

Would you mind doing "COC(=O)c1ccc2oc(NC(=O)c3ccc(N4CCOCC4)c([N+](=O)[O-])c3)nc2c1" as well?
FALSE

Would you mind doing "COc1ccc(/C=C(\C#N)n2nnc3ccccc32)cc1" as well?
TRUE

Would you mind doing "CC(C)(C)CC(C)(C)Nc1c(-c2ccc(-c3ccccc3)cc2)nc2cnccn12" as well?
FALSE

Would you mind doing "Cc1cc2c(F)c(Oc3ncnc(Nc4ccc(N5C[C@@H](C)N[C@@H](C)C5)cc4)c3C#N)cc(F)c2[nH]1" as well?
TRUE

----------
Consider the following compounds and their measured growth readings.
system: UACC-62 melanoma; test: NCI-60 one-dose screen, 48 h (100 = growth as untreated, 0 = no growth, -100 = all killed); conditions: 10 µM unless noted
Compounds without any hit were thinned out: in the full panel of roughly 83,000, 20% have a hit.
Your answer is read as %, so omit the unit and give the number.

// worked examples, growth included
                         chemical_structure     tested_system  meas_value
0       CCN(CC)CCOC(=O)N1c2ccccc2Sc2ccccc21  UACC-62 melanoma          91
1  COc1ccc(OC)c(Nc2nc3nonc3nc2Nc2cccc(Br)c2)c1  UACC-62 melanoma        18.7

Please look at the following compound next.
I have this compound here, "N=C(N)c1ccc(-c2ccc(-c3ccc(Cl)c(Cl)c3)o2)cc1" , and I need its recorded growth.
93.5

----------
test system: PC-3 prostate; assay: NCI-60 one-dose screen, 48 h; settings: 10 µM unless noted
Compounds without any hit were thinned out: in the full panel of roughly 83,000, 20% have a hit. The source made the active and inactive calls. How the source made its calls: active means growth percent below 10; inactive means the rest.
Classes to choose from: active, inactive

Worked examples, 6 molecules total:
molecule	cat
CCN(CC)CCCNC(=O)c1ccc(N)cc1	inactive
CCOC(=O)c1c(C)nc2c(c1N)/C(=C/c1ccc(OC)cc1)C(=O)N2Cc1ccc(F)cc1	active
O=S(=O)(Nc1ccsc1-c1nc(-c2ccccc2)no1)c1cc(Cl)cc(Cl)c1	inactive
CCn1c(Sc2nnc(NC(C)=O)s2)nc2c1c(=O)n(C)c(=O)n2C	inactive
COc1ccc(C(=O)/C=C/c2cc3c(c(OC)c2)OCC(=O)N3)cc1	inactive
C=CC(=O)N[C@@H](Cc1ccc(-c2cc(Cl)cc(Cl)c2)cc1)[C@@H](O)[C@H](O)C(=O)O	inactive

Hi, do you know how O=C1Nc2ccccc2SC1C1SC(=S)N(Cc2ccccc2)C1=O (stereo not given) came out in this test?
inactive

Would you mind doing CCOC(=O)c1nnn(C(Cc2ccccc2Cl)C(=O)OCC)c1C (stereo not given) as well?
inactive

Would you mind doing "Nc1c(-c2nc3ccc(Br)cc3c(=O)[nH]2)nnn1-c1ccccc1" as well?
inactive

Would you mind doing "COc1ccc2c(c1)/C(=C\c1sc(=S)[nH]c1O)C(C(=O)O)=N2" as well?
inactive

Would you mind doing C=C(CNCCc1ccc(O)cc1)[C@@H]1CC[C@]2(COC3CCCCO3)CC[C@]3(C)[C@H](CC[C@@H]4[C@@]5(C)CCC(NCCO)C(C)(C)[C@@H]5CC[C@]43C)[C@@H]12 (stereo not given in full) as well?
active

Would you mind doing "Cc1ccc(S(=O)(=O)NN/C(N)=N\S(=O)(=O)c2cc(C)c(Cl)cc2SCc2ccccc2)cc1" as well?
inactive

Would you mind doing "C[N+](C)(C)CCOC(OCC[N+](C)(C)C)(c1ccccc1)c1ccccc1" as well?
inactive

Would you mind doing "CSc1nc2sc3cc(Cl)ccc3n2c(=N)c1C#N" as well?
inactive

Would you mind doing "Clc1ccc2c(NCCCN3CCN(c4nc(-n5ccnc5)nc5ccccc45)CC3)ccnc2c1" as well?
inactive

Would you mind doing OC(c1cccc(OCc2ccccc2)c1)c1nnc(-c2ccccc2)o1 (stereo not given) as well?
inactive

Would you mind doing "NC(=O)c1c(NC(=O)c2ccccn2)sc2c1CCC(=O)C2" as well?
inactive

Would you mind doing "O=C(O)c1ccccc1C(=O)Nc1ccc(Cl)cc1" as well?
inactive

Would you mind doing CN(C)CCC(O)(Cc1ccccc1)c1ccccc1 (stereo not given) as well?
inactive

Would you mind doing "COc1cc(/C=C/C(=O)c2cccc(-n3cc(-c4ccc(Cl)cc4)[nH]c3=O)c2)cc(OC)c1OC" as well?
inactive
